Entry source: paper PMC9750858

# System Name: PYR1^4F / ΔN-HAB1 (Arabidopsis thaliana, UniProt O49686, A160G/F159V/H115Q/Y120G)
# Construct: 6xHis (N)
# Sequence (O49686 with tags, fused parts or gaps H115Q/Y120G/F159V/A160G): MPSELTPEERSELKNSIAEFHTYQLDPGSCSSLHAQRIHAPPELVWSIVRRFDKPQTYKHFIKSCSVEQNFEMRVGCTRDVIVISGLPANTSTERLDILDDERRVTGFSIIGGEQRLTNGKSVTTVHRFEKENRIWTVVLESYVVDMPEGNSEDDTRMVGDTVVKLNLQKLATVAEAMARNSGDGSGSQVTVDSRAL
# Sequence (Q9CAJ0 179-511 partner): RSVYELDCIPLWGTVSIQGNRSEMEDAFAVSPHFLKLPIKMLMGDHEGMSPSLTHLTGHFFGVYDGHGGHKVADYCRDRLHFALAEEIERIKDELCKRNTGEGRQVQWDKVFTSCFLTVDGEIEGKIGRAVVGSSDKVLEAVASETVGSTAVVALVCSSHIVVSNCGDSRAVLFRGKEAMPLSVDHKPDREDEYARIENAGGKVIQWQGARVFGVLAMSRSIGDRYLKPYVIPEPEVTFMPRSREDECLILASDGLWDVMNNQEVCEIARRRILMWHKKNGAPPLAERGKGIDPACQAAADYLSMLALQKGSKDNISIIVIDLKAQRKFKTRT
# Experiment Summary: Ligand/receptor-mediated PP2C (ΔN-HAB1 phosphatase) inhibition, PYR1^4F
Recorded Endpoint: pEC50
Reminder that pEC50 means the negative base-10 logarithm of the concentration expressed in mol/L.

Query: pEC50; subject: COC(=O)C(NC(=O)c1nn(CCCCF)c2ccccc12)C(C)(C)C (stereo not shown) 6.99

###

# System Name: PYR1^DIAZI (Arabidopsis thaliana, UniProt O49686, A160V/E8G/F108Y/F159G/L87M/M158V/V81Y)
# Experiment Summary: Split NanoLuc luciferase complementation in yeast, NLuc^N-PYR1^DIAZI/NLuc^C-HAB1
# Assay type: cell-based
# Parameters: >PYR1-DIAZI; expressed in transfected cells; host or cells: Saccharomyces cerevisiae BY4742
Recorded Endpoint: EC50 (nM)
A number alone suffices; assume nM.

Query: EC50; subject: CCOP(=S)(OCC)Oc1cc(C)nc(C(C)C)n1 [Diazinon, diazinon] 24

###

# System Name: PYR1^PIRI (Arabidopsis thaliana, UniProt O49686, A160T/E130G/F159T/K59R/N119S/S122Q/S92M/V174A)
# Construct: >PYR1-PIRI
# Experiment Summary: Split NanoLuc luciferase complementation in yeast, NLuc^N-PYR1^PIRI/NLuc^C-HAB1
Recorded Endpoint: EC50 (nM)
A number alone suffices; assume nM.

Query: EC50; subject: CCN(CC)c1nc(C)cc(OP(=S)(OC)OC)n1 19

###

# System Name: PYR1^4F (Arabidopsis thaliana, UniProt O49686, A160G/F159V/H115Q/Y120G)
# Experiment Summary: Yeast transcriptional activation circuit Z4-PYR1/VP64-ΔN-HAB1, GFP reporter, PYR1^4F
Recorded Endpoint: pEC50
Reminder that pEC50 means the negative base-10 logarithm of the concentration expressed in mol/L.

Query: pEC50; subject: COC(=O)C(NC(=O)c1nn(CCCCF)c2ccccc12)C(C)(C)C (stereo not shown) 7.64
